system: Noggin (protein binding on small-molecule microarray); assay: small molecules binding Noggin protein – biochemical, 635/667 nm fluorescence, primary screen (AID 1095); conditions: 635 nm fluorescence, higher = more signal;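 also: score merges 667 nm feature fluorescence with signal to noise over triplicate slides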
Is composite z-score at least 0.1? Then yes (1). If not, no (0).

Form field: composite z-score at least 0.1? Entry: O=C1C2C=CC(C(O)C=Cc3ccc([N+](=O)[O-])cc3)N(Nc3ccccc3F)C2C(=O)N1c1ccccc1 (configuration not stated)
no (0)

Form field: composite z-score at least 0.1? Entry: C[N+](C)(C)CCCC[C@@H]1NC(=O)[C@@H]2C[C@H](C(=O)NCCCCCCNC(=O)CS)[C@H](c3ccc(O)cc3)N2C1=O
no (0)

Form field: composite z-score at least 0.1? Entry: CCOc1cc(C(O)C2C=CC3C(=O)N(c4ccccc4)C(=O)C3N2Nc2ccc(C(C)C)cc2)ccc1O (configuration not stated)
yes (1)

Form field: composite z-score at least 0.1? Entry: CC(C)NC(=O)[C@@H]1c2ccccc2C(=O)N(C(C)C)[C@H]1c1ccc(CO)cc1
no (0)

Form field: composite z-score at least 0.1? Entry: CO[C@H]1O[C@H](CO)[C@@H](OC(=O)Nc2ccc(Br)cc2)[C@@H]2OC(=O)[C@H](Cc3cccc(Br)c3)C/C=C/C[C@@H](Cc3cccc(Br)c3)C(=O)O[C@@H]12
yes (1)

Form field: composite z-score at least 0.1? Entry: [N-]=[N+]=NCc1ccccc1[C@@H]1OC(c2ccc(OCCCO)cc2)=N[C@]1(CCS(=O)(=O)c1ccccc1)C(N)=O
yes (1)

Form field: composite z-score at least 0.1? Entry: COCCOC(=O)N1C(=O)[C@@]2(c3ccccc31)[C@H](C(=O)N1CCc3cc(OC)c(OC)cc3C1)[C@H]1C(=O)O[C@H](c3ccccc3)[C@H](c3ccccc3)N1[C@@H]2c1ccc(O)cc1
yes (1)

Form field: composite z-score at least 0.1? Entry: O=C1OCCC=C[C@H]2OC34C=CCN(c5ccc(Cl)cc5)C(=O)[C@H]3N(CCCO)C(=O)[C@@H]4C12 (some centres not stated)
no (0)

Form field: composite z-score at least 0.1? Entry: COCCCNC(=O)[C@@]1(Sc2ccc(C)cc2)CC(=O)N(Cc2ccccc2Cl)[C@@H]1c1ccc(CO)cc1
yes (1)

Form field: composite z-score at least 0.1? Entry: O=C1O[C@H](c2ccccc2)[C@H](c2ccccc2)N2[C@H]1[C@@H](C(=O)N1CCN(c3ncccn3)CC1)[C@]1(C(=O)Nc3ccc(C#CC4=CCCCC4)cc31)[C@H]2c1ccccc1OCCO
yes (1)

Form field: composite z-score at least 0.1? Entry: O=C1OCCC=C[C@H]2OC34C=CCN(Cn5nnc6ccccc65)C(=O)[C@H]3N(CCO)C(=O)[C@@H]4C12 (some centres not stated)
no (0)

Form field: composite z-score at least 0.1? Entry: O=C(NC1CC1)[C@@H]1c2ccccc2C(=O)N(C2Cc3ccccc3C2)[C@H]1c1ccc(CO)cc1
yes (1)

* * *

assay: growth modulation of vineyard yeast isolate – strain RM11-1a, OD600, basal, 24 h, primary screen (AID 1177);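 also: cultures grown under basal conditions with no added stressor; test concentration not given here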; conditions: S. cerevisiae RM11-1a growth, OD600, 24 h; higher = more signal, called active from +8 up or from −8 down
Is z-score at least 0.2? Then Criterion met. If not, Criterion not met.

Form field: z-score at least 0.2? Entry: COCCOC(=O)N1C(=O)[C@@]2(c3cc(C#CC4(O)CCCCCC4)ccc31)[C@H](c1ccccc1OCCO)N1[C@H](c3ccccc3)[C@H](c3ccccc3)OC(=O)[C@H]1[C@@H]2C(=O)N1CCc2cc(OC)c(OC)cc2C1
Criterion met

Form field: z-score at least 0.2? Entry: CCCCCCc1nc(-c2ccc(-c3ccc(Cl)c(Cl)c3)o2)cc2c1[Si](C(C)C)(C(C)C)O[C@H]2c1ccccc1
Criterion not met

Form field: z-score at least 0.2? Entry: COc1ccc([Si](C)(C)[C@@H]2[C@@H](CCO)O[C@]3(C(=O)N(Cc4cccc(N5CCOC5=O)c4)c4ccccc43)[C@H]2C)cc1
Criterion met

Form field: z-score at least 0.2? Entry: OCC1C=C(/C=C/c2ccccc2)CN1Cc1ccccc1Br (stereo unspecified)
Criterion not met

Form field: z-score at least 0.2? Entry: C#CCN1[C@@H](Cc2ccc(O)cc2)C(=O)O[C@H](Cc2ccccc2)[C@@H]1/C=C/C1CC1
Criterion not met

Form field: z-score at least 0.2? Entry: C[C@H]1C2[C@H](Cc3ccccc3)NC(=O)[C@]23C(=O)NCC(=O)N2CCC[C@H]2C(=O)NC/C=C/CCC/C=C/C3[C@@H]2O[C@]12C (stereo partly specified)
Criterion not met
